tested on: human cytomegalovirus (HCMV) strain AD-169; assay: Anti-HCMV assay, strain AD169; type: cell-based; conditions: in parentheses

>  <COMPOUND>
Nc1nc2c(ncn2COC(CO)CO)c(=O)[nH]1 [Ganciclovir, reference compound]

>  <ASSAY TARGET>
human cytomegalovirus (HCMV) strain AD-169

>  <SI>
21

$$$$
>  <COMPOUND>
O=c1ccn(C/C=C/c2ccccc2)c(=O)n1Cc1cc(F)cc(F)c1

>  <ASSAY TARGET>
human cytomegalovirus (HCMV) strain AD-169

>  <SI>
1.38

$$$$
>  <COMPOUND>
O=c1ccn(C/C=C/c2ccccc2)c(=O)n1Cc1cccc2ccccc12

>  <ASSAY TARGET>
human cytomegalovirus (HCMV) strain AD-169

>  <SI>
7

$$$$
>  <COMPOUND>
Cc1cc(Br)cc(Cn2c(=O)ccn(C/C=C/c3ccccc3)c2=O)c1

>  <ASSAY TARGET>
human cytomegalovirus (HCMV) strain AD-169

>  <SI>
6

$$$$
>  <COMPOUND>
Nc1ccn(C[C@@H](CO)OCP(=O)(O)O)c(=O)n1.O.O [Cidofovir, reference compound]

>  <ASSAY TARGET>
human cytomegalovirus (HCMV) strain AD-169

>  <SI>
64

$$$$
>  <COMPOUND>
O=c1ccn(C/C=C/c2ccccc2)c(=O)n1Cc1cc(Cl)cc(Cl)c1

>  <ASSAY TARGET>
human cytomegalovirus (HCMV) strain AD-169

>  <SI>
11

$$$$
